Cited source for all entries: the supplement of paper PMC10567573

B1: ZNF193 (parent)
chain: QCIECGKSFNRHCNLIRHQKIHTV

variants of: B1; experiment: protein stability index of a GFP-peptide fusion (GPS, HEK-293T) (PSI 1-6); higher = more stable; conditions: c terminus: a fixed tail appended;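 further: lentivirally expressed fusions sorted by FACS into six bins by GFP to DsRed ratio, PSI derived from sequencing read proportions per bin multiplied by bin number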
protein stability index for assorted variants

H12R    3.22
C2F    1.07
N14L    3.11
C5P    2.49
C13I    3.04

protein stability index lookup needed for C2P , thanks.
1.34

Ok, now H22M
2.34

Ok, now I3E
4.31

Ok, now V24W
2.75

Ok, now N14G
2.72

Ok, now R17H
3.13

Ok, now N14P
2.25

Ok, now I16L
3.29

Ok, now Q1C
3.26

Ok, now I16Y
2.94

Ok, now K7L
2.86

Ok, now V24R
3.83

Ok, now R11F
3.07

Ok, now E4N
2.76
